Source of measurements: PubChem BioAssay

Assay: H69AR cell proliferation blockers – human, duplicate replicates, primary screen (AID 580);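 note: 100% = mean luminescence of untreated wells and 0% = no signal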
Conditions: H69AR lung tumor cells viability, ATP luminescence, 72 h; at 10 µM
Active and inactive are the calls of the source.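 Rule for the calls: active = viability at or under a set limit in both replicates, limit being median viability minus 3 SD (cut at about 48% in these data, passing the limit was not always enough); inconclusive = at or under the limit in just one replicate; inactive = at or above the limit in both replicates.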
Could you please pick one outcome from this set? 1 (active), 0 (inactive)

[
  {
    "molecule": "Cc1cc(C)n(-c2ccc(N3CCOCC3)nn2)n1",
    "class": 0
  },
  {
    "molecule": "Cc1ccccc1-c1nc(CN2CCC(C(=O)N3CCC(C(N)=O)CC3)CC2)c(C)o1",
    "class": 0
  },
  {
    "molecule": "CCCc1cc(C(=O)Nc2ccccc2SC)no1",
    "class": 0
  }
]

Query: I'd appreciate the recorded outcome for CCn1cc(C(=O)N2CCOCC2)c(=O)c2cc(S(=O)(=O)N(C)C3CCCCC3)ccc21 from this test.
Reply: 0

Query: I'd appreciate the recorded outcome for COc1cc(C2c3c(oc4ccccc4c3=O)C(=O)N2c2ccc(C)cn2)ccc1O (stereo not given) from this test.
Reply: 0

Query: I'd appreciate the recorded outcome for CC(C)CC1NC2(C(=O)N(C)c3ccccc32)C2C(=O)N(C(C)C)C(=O)C12 (stereo not given) from this test.
Reply: 0

Query: I'd appreciate the recorded outcome for O=C(O)C1CCCN(S(=O)(=O)c2ccc(Cl)s2)C1 (stereo not given) from this test.
Reply: 0

Query: I'd appreciate the recorded outcome for CCc1ccc(N2CC34C=CC(O3)C(C(=O)OC)C4C2=O)cc1 (stereo not given) from this test.
Reply: 0

Query: I'd appreciate the recorded outcome for Cc1noc(/C=C/N(C)C)c1S(=O)(=O)N1CCCC(C(=O)N2CCc3ccccc32)C1 (stereo not given) from this test.
Reply: 0

Query: I'd appreciate the recorded outcome for Cn1cc(Cl)c(C(=O)NC2CCCC2)n1 from this test.
Reply: 0

Query: I'd appreciate the recorded outcome for O=C(OCN1C(=O)c2ccccc2C1=O)C1CCCCC1 from this test.
Reply: 0

Query: I'd appreciate the recorded outcome for CCC(Oc1ccccc1)C(=O)Nc1ccccc1OC (stereo not given) from this test.
Reply: 0

Query: I'd appreciate the recorded outcome for COc1ccc(C2CC(c3cccc(C)c3)n3ncnc3N2)cc1 (stereo not given) from this test.
Reply: 0

Query: I'd appreciate the recorded outcome for CCOc1ccc(N(CC(=O)Nc2ccc(C)c(C)c2)S(=O)(=O)c2c(C)noc2C)cc1 from this test.
Reply: 0

Query: I'd appreciate the recorded outcome for CCn1cc(C(=O)NCC2CCCO2)c(=O)c2cc(S(=O)(=O)N(C)C3CCCCC3)ccc21 (stereo not given) from this test.
Reply: 0

Query: I'd appreciate the recorded outcome for CC(=O)c1ccc(NC(=O)C2CCN(S(=O)(=O)c3cccc4cccnc34)CC2)cc1 from this test.
Reply: 0

Query: I'd appreciate the recorded outcome for CCc1c(C)c2c(C)nn(-c3ccccc3)c2[nH]c1=O from this test.
Reply: 0

Query: I'd appreciate the recorded outcome for C/C=C/CSc1nc2c(c(=O)[nH]c(=O)n2C)n1Cc1ccc(C)cc1 from this test.
Reply: 1

Query: I'd appreciate the recorded outcome for Cc1ccc(NC(=O)c2cc(-c3ccc(C)o3)nc3ccccc23)nc1 from this test.
Reply: 1

Query: I'd appreciate the recorded outcome for CCn1c(SCC(=O)Nc2ccc(Cl)cc2)nnc1C1CC1 from this test.
Reply: 0

Query: I'd appreciate the recorded outcome for CN1CCN(C(=O)C2CCN(S(=O)(=O)c3ccc4c(c3)oc(=O)n4C)CC2)CC1 from this test.
Reply: 0
